Published pIC50 for Human KLK1 (Homo sapiens (Human)), assembled from different documents, is shown next.
pIC50: −log10 of the molar value.
Quick rule: pIC50 of at least 8 means Met, below that means Not met.

Illustrative cases are given below, each with its answer.
compound	label
CN1CCC[C@@H]1C(=O)N[C@@H](Cc1ccc2ccccc2n1)C(=O)NCc1ccc(N)nc1	Not met
COCc1nn(Cc2ccc3c(c2)CN(C2CC2)CC3)cc1C(=O)NCc1c(-n2cnc(C(F)(F)F)n2)ccc(OC)c1F	Not met
COc1ccc2[nH]c(C(=O)N[C@@H](Cc3cccc(Cl)c3)C(=O)NCc3ccc(N)nc3C)cc2c1	Not met
Nc1ccc(CNC(=O)[C@H](Cc2ccc(F)cc2)NC(=O)c2cc3ccccc3[nH]2)cn1	Not met
COc1ccc(CN2CCN(Cc3cncc(C(=O)NCc4ccc5c(N)nccc5c4)c3)CC2)cc1	Not met
COCc1nn(Cc2ccc3c(c2)CNCC32CC2)cc1C(=O)NCc1c(-n2cc(C)nn2)ccc(OC)c1F	Not met

Quick check: does Cc1cccc(C[C@H](NC(=O)c2[nH]c(C)cc2C)C(=O)NCc2ccc(N)nc2C)c1 have pIC50 greater than or equal to 8?
Met

Quick check: does Cc1cc(C(=O)N[C@@H](Cc2ccc(F)cc2)C(=O)NCc2ccc(N)nc2)n(C)n1 have pIC50 greater than or equal to 8?
Not met

Quick check: does Nc1nccc2cc(CNC(=O)c3cn(Cc4ccc(N5CCC(F)(F)C5)nc4)nc3C3CC3)ccc12 have pIC50 greater than or equal to 8?
Not met

Quick check: does COCc1nn(Cc2ccc(Cn3ccccc3=O)cc2)cc1C(=O)NCc1cccc(OC)c1 have pIC50 greater than or equal to 8?
Not met

Quick check: does CC(C)N(C)[C@@H](C)C(=O)N[C@@H](CC1CCCC2CCCCC21)C(=O)NCc1ccc(N)nc1 (stereo partly shown) have pIC50 greater than or equal to 8?
Met

Quick check: does CCC(C)[C@@H](NC)C(=O)N[C@@H](Cc1ccc(O)cc1)C(=O)NCc1ccc(N)nc1 (stereo partly shown) have pIC50 greater than or equal to 8?
Not met

Quick check: does COCc1nn(Cc2ccc(CN3CCCCC3=O)cc2)cc1C(=O)NCc1c(C#N)ccc(OC)c1F have pIC50 greater than or equal to 8?
Not met

Quick check: does Nc1nccc2cc(CNC(=O)c3cncc(Cc4ccc(F)nc4)c3)ccc12 have pIC50 greater than or equal to 8?
Not met

Quick check: does Nc1nn(Cc2ccc(Cn3ccccc3=O)cc2)cc1C(=O)NCCOc1cccc(Cl)c1 have pIC50 greater than or equal to 8?
Not met

Quick check: does Nc1nn(Cc2ccc(Cn3ccccc3=O)cc2)cc1C(=O)NCc1cccc2[nH]ncc12 have pIC50 greater than or equal to 8?
Not met

Quick check: does Cc1cc(C(=O)N[C@H](C)c2ccc(CN)cc2)c(C)n1Cc1csc(-c2ccccc2)n1 have pIC50 greater than or equal to 8?
Not met

Quick check: does Cc1ccc2cc(Cn3cc(C(=O)NCc4ccc5c(N)nccc5c4)ccc3=O)ccc2n1 have pIC50 greater than or equal to 8?
Not met

Quick check: does C[C@@H](C(=O)N[C@@H](Cc1ccc(F)cc1)C(=O)NCc1ccc(N)nc1)N1CCCCC1 have pIC50 greater than or equal to 8?
Met

Quick check: does CCC(C)[C@@H](N)C(=O)N[C@@H](Cc1ccc(F)c(F)c1)C(=O)NCc1ccc(N)nc1 (stereo partly shown) have pIC50 greater than or equal to 8?
Met

Quick check: does Nc1nn(Cc2ccc(COc3ncccn3)cc2)cc1C(=O)NCCOc1cccc(Cl)c1 have pIC50 greater than or equal to 8?
Not met

Quick check: does C[C@@H](NC(=O)c1cn(Cc2ccc(Cn3ccccc3=O)cc2)nc1N)C(=O)N(C)c1cccc(Cl)c1 have pIC50 greater than or equal to 8?
Not met

Quick check: does CN1CCC[C@@H]1C(=O)N[C@@H](Cc1ccc(F)c(F)c1)C(=O)NCc1ccc(N)nc1 have pIC50 greater than or equal to 8?
Met

Quick check: does COCc1nn(Cc2cc3n(n2)CCN(C)C3)cc1C(=O)NCc1c(-n2cc(C)nn2)ccc(OC)c1F have pIC50 greater than or equal to 8?
Not met

Quick check: does CCC(C)[C@H](NC)C(=O)N[C@@H](CC1CCCCC1)C(=O)NCc1ccc(N)nc1 (stereo partly shown) have pIC50 greater than or equal to 8?
Not met

Quick check: does Nc1ccc(CNC(=O)[C@H](Cc2ccc(F)cc2)NC(=O)c2ncc[nH]2)cn1 have pIC50 greater than or equal to 8?
Not met

Quick check: does CC1CCCC(C)N1CC(=O)N[C@@H](CC1CCCCC1)C(=O)NCc1ccc(N)nc1 (stereo partly shown) have pIC50 greater than or equal to 8?
Not met

Quick check: does CC(C)N(C)[C@@H](CO)C(=O)N[C@@H](Cc1ccc(F)c(F)c1)C(=O)NCc1ccc(N)nc1 have pIC50 greater than or equal to 8?
Not met
